# Tested on: HARA
# Method Description: relative viability (nuclei count vs DMSO), 5 days (fraction); higher = more cells survive
# Condition Set: first compound 0.1265 µM
Can you tell me relative viability for the items I'm about to list?
Answers are plain numbers.

Compound	relative viability
COc1cc(N2CCC(C(N)=O)CC2)ccc1Nc1nc(N)c(Cl)c(Nc2ccccc2S(=O)(=O)C(C)C)n1 [HG-5-88-01] + Nc1nc2[nH]cc(CCc3ccc(C(=O)N[C@@H](CCC(=O)O)C(=O)O)cc3)c2c(=O)[nH]1 [Pemetrexed] (partner 0.2 µM)	0.225
COc1cc(N2CCC(C(N)=O)CC2)ccc1Nc1nc(N)c(Cl)c(Nc2ccccc2S(=O)(=O)C(C)C)n1 [HG-5-88-01] + O=C(c1cc(Cc2n[nH]c(=O)c3ccccc23)ccc1F)N1CCN(C(=O)C2CC2)CC1 [Olaparib] (partner 8 µM)	1.02
C[C@@H]1CN(CC(=O)Nc2ccc3c(c2)Cc2cccc(-c4cc(=O)cc(N5CCOCC5)o4)c2S3)C[C@H](C)O1 + CC(=O)c1c(C)c2cnc(Nc3ccc(N4CCNCC4)cn3)nc2n(C2CCCC2)c1=O [Palbociclib] (partner 0.5 µM)	0.186

Provide each entry's relative viability from the list below.
1. Clc1ccc(Nc2nnc(Cc3ccncc3)c3ccccc23)cc1 [Vatalanib] + COc1cccc2cc(-c3nc([C@H]4CC[C@H](C(=O)O)CC4)n4ncnc(N)c34)[nH]c12 [OSI-027] (partner 0.5 µM)
2. C[C@@H]1CN(CC(=O)Nc2ccc3c(c2)Cc2cccc(-c4cc(=O)cc(N5CCOCC5)o4)c2S3)C[C@H](C)O1 + CS(=O)(=O)N1CCN(Cc2cc3nc(-c4cccc5[nH]ncc45)nc(N4CCOCC4)c3s2)CC1 [Pictilisib] (partner 1 µM)
3. C[C@@H]1CN(CC(=O)Nc2ccc3c(c2)Cc2cccc(-c4cc(=O)cc(N5CCOCC5)o4)c2S3)C[C@H](C)O1 + CC(C)C[C@H](NC(=O)[C@H](Cc1ccccc1)NC(=O)c1cnccn1)B(O)O [Bortezomib] (partner 0.002 µM)
4. Clc1ccc(Nc2nnc(Cc3ccncc3)c3ccccc23)cc1 [Vatalanib] + CCNC(=O)c1noc(-c2cc(C(C)C)c(O)cc2O)c1-c1ccc(CN2CCOCC2)cc1 [Luminespib] (partner 0.01 µM)
5. COc1cc(N2CCC(C(N)=O)CC2)ccc1Nc1nc(N)c(Cl)c(Nc2ccccc2S(=O)(=O)C(C)C)n1 [HG-5-88-01] + Cc1nc(Nc2ncc(C(=O)Nc3c(C)cccc3Cl)s2)cc(N2CCN(CCO)CC2)n1 [Dasatinib] (partner 0.075 µM)

**A:**
1. 0.595
2. 0.37
3. 1.15
4. 0.617
5. 0.255

* * *

# System: SK-MES-1
# Method Description: relative viability (nuclei count vs DMSO), 5 days (fraction); higher = more cells survive
# Condition Set: first compound 1.265 µM
What relative viability was measured for each of the following?
One number for each entry.

Here are 6 compounds. What values of relative viability were reported for them?
1. COc1cc(N2CCC(C(N)=O)CC2)ccc1Nc1nc(N)c(Cl)c(Nc2ccccc2S(=O)(=O)C(C)C)n1 [HG-5-88-01] + COc1cccc2cc(-c3nc([C@H]4CC[C@H](C(=O)O)CC4)n4ncnc(N)c34)[nH]c12 [OSI-027] (partner 0.5 µM)
2. Clc1ccc(Nc2nnc(Cc3ccncc3)c3ccccc23)cc1 [Vatalanib] + CC1(C)CCC(c2ccc(Cl)cc2)=C(CN2CCN(c3ccc(C(=O)NS(=O)(=O)c4ccc(N[C@H](CCN5CCOCC5)CSc5ccccc5)c(S(=O)(=O)C(F)(F)F)c4)cc3)CC2)C1 [Navitoclax] (partner 0.5 µM)
3. COc1cc(N2CCC(C(N)=O)CC2)ccc1Nc1nc(N)c(Cl)c(Nc2ccccc2S(=O)(=O)C(C)C)n1 [HG-5-88-01] + C[C@]1(O)C[C@@H](c2nc(-c3ccc4ccc(-c5ccccc5)nc4c3)c3c(N)nccn32)C1 [Linsitinib] (partner 1 µM)
4. COc1cc(N2CCC(C(N)=O)CC2)ccc1Nc1nc(N)c(Cl)c(Nc2ccccc2S(=O)(=O)C(C)C)n1 [HG-5-88-01] + C[C@@H](Oc1cc(-c2cnn(C3CCNCC3)c2)cnc1N)c1c(Cl)ccc(F)c1Cl [Crizotinib] (partner 1 µM)
5. Clc1ccc(Nc2nnc(Cc3ccncc3)c3ccccc23)cc1 [Vatalanib] + Nc1nc2[nH]cc(CCc3ccc(C(=O)N[C@@H](CCC(=O)O)C(=O)O)cc3)c2c(=O)[nH]1 [Pemetrexed] (partner 0.2 µM)
6. COc1cc(N2CCC(C(N)=O)CC2)ccc1Nc1nc(N)c(Cl)c(Nc2ccccc2S(=O)(=O)C(C)C)n1 [HG-5-88-01] + CS(=O)(=O)N1CCN(Cc2cc3nc(-c4cccc5[nH]ncc45)nc(N4CCOCC4)c3s2)CC1 [Pictilisib] (partner 1 µM)

**A:**
0.331
1.01
1.04
0.978
0.912
0.282

Hey, quick one: what's relative viability for each of these?
1. COc1cc(N2CCC(C(N)=O)CC2)ccc1Nc1nc(N)c(Cl)c(Nc2ccccc2S(=O)(=O)C(C)C)n1 [HG-5-88-01] + O=C(CCCCCCC(=O)Nc1ccccc1)NO [Vorinostat] (partner 1 µM)
2. Clc1ccc(Nc2nnc(Cc3ccncc3)c3ccccc23)cc1 [Vatalanib] + CS(=O)(=O)N1CCN(Cc2cc3nc(-c4cccc5[nH]ncc45)nc(N4CCOCC4)c3s2)CC1 [Pictilisib] (partner 1 µM)

**A:**
1: 0.979; 2: 0.338
